# IC50 annotations
Molecular target: aromatase (cytochrome P450 aromatase) (Homo sapiens, UniProt P11511)
Sequence (P11511 1-503): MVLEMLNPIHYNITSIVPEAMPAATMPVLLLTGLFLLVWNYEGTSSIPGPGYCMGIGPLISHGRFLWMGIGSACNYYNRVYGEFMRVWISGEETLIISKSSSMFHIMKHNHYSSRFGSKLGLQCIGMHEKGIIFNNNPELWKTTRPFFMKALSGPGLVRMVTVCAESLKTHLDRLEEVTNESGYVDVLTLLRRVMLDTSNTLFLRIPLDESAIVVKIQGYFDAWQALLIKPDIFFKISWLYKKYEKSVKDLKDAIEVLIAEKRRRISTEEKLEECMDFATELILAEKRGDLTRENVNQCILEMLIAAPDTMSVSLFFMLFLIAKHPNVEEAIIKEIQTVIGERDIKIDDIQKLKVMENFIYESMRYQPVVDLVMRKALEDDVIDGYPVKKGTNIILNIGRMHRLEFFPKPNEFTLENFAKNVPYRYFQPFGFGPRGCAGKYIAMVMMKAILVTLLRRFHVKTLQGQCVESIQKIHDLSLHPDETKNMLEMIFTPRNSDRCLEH
Give the quantity in nM, number only.

C[C@]12CCC(=O)C(SCCl)=C1CC[C@@H]1[C@@H]2CC[C@]2(C)C(=O)CC[C@@H]12; 75

For the next question, use this compound.
Ask: Request the reported IC50 associated with C[C@]12CCC(=O)C(SCF)=C1CC[C@@H]1[C@@H]2CC[C@]2(C)C(=O)CC[C@@H]12
Result: 70

Where these numbers come from: patent US4988684A
